Tested on: H1650 (Lung Adenocarcinoma)
Assay: Cell viability analysis (WST-1), H1650
Type: cell-based
Details: Homo sapiens, NCI-H1650, 72 h, Table 4, repeated experiments, drug 10 μM, WST-1, read-out: survival rate (viability) of cancer cells, H1650
Task for the reader: assign each of the following molecules its reported viability at 10 µM.
I'd appreciate it if you wrote the number followed by its unit.

For H1650 (Lung Adenocarcinoma), provide viability at 10 µM of OC(CNCC(O)C1CCc2cc(F)ccc2O1)C1CCc2cc(F)ccc2O1 (centres unmarked) please.
87.4%

For H1650 (Lung Adenocarcinoma), provide viability at 10 µM of C[C@@H]1O[C@@H](O[C@H]2C[C@@H](O)[C@]3(CO)[C@H]4[C@H](O)C[C@]5(C)[C@@H](C6=CC(=O)OC6)CC[C@]5(O)[C@@H]4CC[C@]3(O)C2)[C@H](O)[C@H](O)[C@H]1O please.
38.7%

For H1650 (Lung Adenocarcinoma), provide viability at 10 µM of COC(=O)C1=C(C)NC(C)=C(C(=O)OCC(C)C)C1c1ccccc1[N+](=O)[O-] (centres unmarked) [Nisoldipine (Sular), Nisoldipine] please.
70%

For H1650 (Lung Adenocarcinoma), provide viability at 10 µM of COc1ccc(-c2nc3ccc(C4=NNC(=O)CC4C)cc3[nH]2)cc1 (centres unmarked) please.
77.8%

For H1650 (Lung Adenocarcinoma), provide viability at 10 µM of COCCOC(=O)C1=C(C)NC(C)=C(C(=O)OC/C=C/c2ccccc2)C1c1cccc([N+](=O)[O-])c1 (centres unmarked) please.
69%
